meta.source: PubChem BioAssay AID1851

TEST_TARGET: Cytochrome P450 2C19 (Homo sapiens)
ASSAY_REMARKS: Cytochrome panel assay with activity outcomes
TEST_SETTINGS: recombinant CYP, pro-luciferin dealkylation, luminescence, p450-cyp2c19; series mostly up to 57.1 µM
The whole screen tested about 16,000 compounds, of which about 5,800 (36%) were called active. Inconclusive results (about 23%) are left out. Calls come from the whole dose curve; as a rule, active = well fitted curve in the direction sought with a large enough effect; inconclusive = small, poorly fitted or top-dose-only effect, or effect the other way; inactive = no such curve, though single readings can be large or run the other way. Some of the results follow.
Allowed answers: yes (active), no (inactive)

The examples below pair each entry with its known result.
> print(dat)
                            chem.smiles  classification
1  CCC(=O)Nc1ccccc1C(=O)OCC(=O)c1ccccc1             yes
2      C[N+](C)(C)CCC(=O)c1cccc2ccccc12              no

// param item: `c1ccc(-c2nc(CSc3n[nH]c(-c4cccs4)n3)cs2)cc1` ; yields the recorded call
yes

What did this assay record as the result for `O=C(O)Cc1cc2ccccc2nc1C(=O)O` ?
no

Could you kindly confirm the outcome this assay logged for `COc1ccc(CNc2ccnc(-c3ccc4c(c3)OCO4)n2)c(OC)c1` ?
yes

Dear all, I need the recorded test outcome for `CCC(=O)Nc1ccccc1C(=O)OCC(=O)c1cccc2ccccc12` , thank you.
yes

* * *

TEST_TARGET: Cytochrome P450 2C19 (Homo sapiens) (UniProt P33261)
Sequence (P33261 whole entry, looked up): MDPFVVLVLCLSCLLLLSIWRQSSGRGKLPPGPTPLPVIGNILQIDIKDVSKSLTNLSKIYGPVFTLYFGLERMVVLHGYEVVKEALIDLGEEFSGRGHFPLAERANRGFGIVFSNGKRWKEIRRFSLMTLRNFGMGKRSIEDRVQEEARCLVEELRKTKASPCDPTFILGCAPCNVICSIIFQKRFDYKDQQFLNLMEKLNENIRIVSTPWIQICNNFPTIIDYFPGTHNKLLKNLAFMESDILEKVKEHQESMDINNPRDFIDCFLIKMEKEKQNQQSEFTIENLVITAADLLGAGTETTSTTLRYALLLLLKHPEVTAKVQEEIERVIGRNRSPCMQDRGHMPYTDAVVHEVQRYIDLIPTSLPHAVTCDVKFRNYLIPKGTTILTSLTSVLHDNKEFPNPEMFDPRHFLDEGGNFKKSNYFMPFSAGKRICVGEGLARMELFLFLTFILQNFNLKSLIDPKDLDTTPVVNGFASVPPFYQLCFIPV
ASSAY_REMARKS: Cytochrome panel assay with activity outcomes
TEST_SETTINGS: recombinant CYP, pro-luciferin dealkylation, luminescence, p450-cyp2c19; series mostly up to 57.1 µM
About 5,800 (36%) of roughly 16,000 compounds were called active. Inconclusive results (about 23%) are left out. Calls come from the whole dose curve; as a rule, active = well fitted curve in the direction sought with a large enough effect; inconclusive = small, poorly fitted or top-dose-only effect, or effect the other way; inactive = no such curve, though single readings can be large or run the other way. The list shows a part of the results.
# valid calls are active, inactive; nothing else

The examples below pair each entry with its known result.
> print(dat)
                                  compound                               test.target  classification
1    FC(F)(F)c1ccccc1-c1nccc(NCc2ccccc2)n1  Cytochrome P450 2C19 (Homo sapiens) (UniProt P33261)          active
2    CC(=O)NCCNc1ccnc(-c2ccccc2C(F)(F)F)n1  Cytochrome P450 2C19 (Homo sapiens) (UniProt P33261)        inactive
3   O=C(Nc1cnc2ccccc2c1)c1cccc(-n2cnnn2)c1  Cytochrome P450 2C19 (Homo sapiens) (UniProt P33261)        inactive
4  Fc1ccc(Nc2ccnc(-c3ccccc3C(F)(F)F)n2)cc1  Cytochrome P450 2C19 (Homo sapiens) (UniProt P33261)          active
5   Cc1ccc(OCC(=O)Nc2ccccc2N2CCOCC2)c(C)c1  Cytochrome P450 2C19 (Homo sapiens) (UniProt P33261)          active

For this compound, state the assay outcome: CCC(C(=O)NC(C)(C)C)N(C(=O)Cn1nnc(-c2cccs2)n1)c1cnc2ccccc2c1 (stereo unspecified)
active

Any idea what this test logged for `Cc1noc(C)c1C(=O)N1CCC2(CCCN(Cc3ccc(C#N)cc3)C2)CC1` ?
inactive

* * *

TEST_TARGET: Cytochrome P450 2C19 (Homo sapiens)
ASSAY_REMARKS: Cytochrome panel assay with activity outcomes; for activity, negative = inhibition: % is set by controls: 0 for no effect and ±100 for the full control effect
TEST_SETTINGS: recombinant CYP, pro-luciferin dealkylation, luminescence, p450-cyp2c19; series mostly up to 57.1 µM
Method: The P450 gene superfamily is involved in the metabolism and clearance of xenobiotics. This assay used various human CYP P450 isozymes to measure the dealkylation of various pro-luciferin substrates to luciferin. The luciferin is then measured by luminescence after the addition of a luciferase detection reagent. […] Inhibitors and some substrates limit the production of luciferin, and decrease measured luminescence. […] 8, Detection, 1 sec, ViewLux luminescent read […]
Screen size: about 16,000 compounds; about 5,800 (36%) were called active. Inconclusive results (about 23%) are left out. This is one part of the list.
REPORTED_ENDPOINT: activity, negative = inhibition

Example cases with answers are listed next.
> print(dat)
                                chem.smiles                          test.target                reported.endpoint                  value.observed
1  CC(=O)OC[C@H]1O[C@@H](O/N=C\[C@@H](C)[C@H](OCc2ccccc2)C(C)C)[C@H](OC(C)=O)[C@@H](OC(C)=O)[C@H]1OC(C)=O  Cytochrome P450 2C19 (Homo sapiens)  activity, negative = inhibition   12.9% [at 11.4 µM] (inactive)
2              CCN1CCCCC(=N/O)/C(=N/O)CCCC1  Cytochrome P450 2C19 (Homo sapiens)  activity, negative = inhibition   10.8% [at 11.4 µM] (inactive)
3          Cc1ccc(NC(=O)c2ccccc2C(=O)O)cc1C  Cytochrome P450 2C19 (Homo sapiens)  activity, negative = inhibition  -34.4% [at 11.4 µM] (inactive)
4                 CC(C)=CCNc1ncnc2nc[nH]c12  Cytochrome P450 2C19 (Homo sapiens)  activity, negative = inhibition   26.8% [at 11.4 µM] (inactive)
5            Clc1ccc2c(NCCNC3CCCCC3)ccnc2c1  Cytochrome P450 2C19 (Homo sapiens)  activity, negative = inhibition     41% [at 11.4 µM] (inactive)

get_value(item= `O=C(O)/C=C\C(=O)Nc1cccc2c1-c1ccccc1C2=O` , readout=activity, negative = inhibition) returns 28.6% [at 11.4 µM] (inactive)

* * *

TEST_TARGET: Cytochrome P450 2C19 (Homo sapiens) (UniProt P33261)
ASSAY_REMARKS: Cytochrome panel assay with activity outcomes
TEST_SETTINGS: recombinant CYP, pro-luciferin dealkylation, luminescence, p450-cyp2c19; series mostly up to 57.1 µM
Protocol: The P450 gene superfamily is involved in the metabolism and clearance of xenobiotics. This assay used various human CYP P450 isozymes to measure the dealkylation of various pro-luciferin substrates to luciferin. The luciferin is then measured by luminescence after the addition of a luciferase detection reagent. […] Inhibitors and some substrates limit the production of luciferin, and decrease measured luminescence. […] 8, Detection, 1 sec, ViewLux luminescent read […]
In all, about 16,000 compounds went through this assay and about 5,800 (36%) were called active. Another 23% or so got no clear call; they are omitted. The call rests on the fitted dose curve; in most records, active means well fitted curve in the direction sought with a large enough effect; inconclusive means small, poorly fitted or top-dose-only effect, or effect the other way; inactive means no such curve, though single readings can be large or run the other way. Some of the results follow.
Choose one outcome from this list and give only that: active, inactive

> print(dat)
                                   compound  classification
1  CCOC(=O)c1c(C)nc2c(c1-c1ccccc1)C(=O)CC(C)(C)C2          active
2  CCCCC(=O)Nc1ccc(C(=O)NNC(=O)CCc2ccccc2)cc1        inactive

Recorded test outcome, item `CC(C)(C)NC[C@H](O)COc1cccc2c1CCC(=O)N2`
inactive

# outcome recorded in this test, key = `CNC(=S)Nc1ccc(Nc2ccccc2)cc1`
active

What was the test verdict on `CC(C)NC(=O)COC(=O)c1cc(=O)[nH]c2ccccc12` ?
inactive

Hi, do you know how O=C1CCCN1CC(O)CS(=O)(=O)c1ccccc1 (stereo unspecified) came out in this test?
inactive

Call for entry `CON(c1nc(N(C)C)nc(N(C)C)n1)S(=O)(=O)c1ccccc1Cl` :
active

Record lookup: outcome of this test for `COc1ccc(NC(=O)N2CC3(CCN(C(=O)c4cnccn4)CC3)C2)cc1` ?
inactive

Which result was noted for this compound in the test: `Nc1ncnc2c1ncn2[C@@H]1O[C@@H](C(=O)NC2CC2)[C@H](O)[C@@H]1O`
inactive

For `Cc1cc(OCCn2cc(/C(N)=N/O)c3ccccc32)ccc1Cl` , what call appears in the results of this test?
active

Would you mind telling me which call this test gave `CC(C)(C)NC(=S)Nc1ccc(Nc2ccccc2)cc1` ?
active

What call does the record list for `CN(C)c1ccc(/C=C2\SC(=S)N(Nc3ncc(C(F)(F)F)cc3Cl)C2=O)cc1` ?
active

Per the records of this test, what outcome belongs to `COc1ccc(NC(=O)N2CC3(CCN(S(=O)(=O)c4ccccc4)CC3)C2)cc1` ?
inactive

Kindly provide the recorded test outcome for the following compound: `Nc1ncnc2c1nc(Sc1ccc(Cl)cc1)n2[C@@H]1O[C@H]2COP(=O)(O)O[C@@H]2[C@H]1O`
inactive

* * *

TEST_TARGET: Cytochrome P450 2C19 (Homo sapiens)
ASSAY_REMARKS: Cytochrome panel assay with activity outcomes
TEST_SETTINGS: recombinant CYP, pro-luciferin dealkylation, luminescence, p450-cyp2c19; series mostly up to 57.1 µM
Screen size: about 16,000 compounds; about 5,800 (36%) were called active. Another 23% or so got no clear call; they are omitted. Calls come from the whole dose curve; as a rule, active = well fitted curve in the direction sought with a large enough effect; inconclusive = small, poorly fitted or top-dose-only effect, or effect the other way; inactive = no such curve, though single readings can be large or run the other way. Some of the results follow.
Answer with one of the outcomes given here: Y = active, N = inactive

> print(dat)
                                   compound  classification
1       O=c1cnc2cnc(Oc3ccccc3)nc2n1Cc1cccs1               Y
2            COc1ncc2ncc(=O)n(Cc3cccs3)c2n1               N
3  COc1ncc2nc(-c3ccccc3)c(=O)n(-c3ccccc3)c2n1               N
4              COc1ccc(CC(=S)N2CCOCC2)cc1OC               Y
5        COc1ncc2ncc(=O)n(Cc3ccc(F)cc3)c2n1               Y

Outcome? Cc1ccc(C2C(C(=O)c3ccco3)=C(O)C(=O)N2c2nnc(C)s2)cc1 (stereo unspecified)
N

Can you look up the reported call for `O=c1cnc2cnc(Oc3cccc(Cl)c3)nc2n1C1CC1` for me?
Y

Query: recorded result category for `CCOc1ccc(N2C(=O)c3cccnc3C2=O)cc1` in this test
N

Hi team, can someone confirm the assay call for `CN1CCc2cc3c(cc2[C@@H]1[C@@H]1C(=O)Oc2c1ccc1c2OCO1)OCO3` ?
Y

Hi, sorry to bother you, what did the test record for `C=C1C(=O)O[C@@H]2[C@H]3O[C@]3(C)CCC=C(C)CC[C@@H]12` ?
N

// outcome(item) with item = `O=c1c2ccccc2c(-c2ccccc2)nn1Cc1ccc(Cl)cc1`
Y
